Tested on: TLK2
condition set: concentration: 1 μM, replicates: in singlicate; n = 1;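 note: KINOMEscan kinase panel screen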
Record form. Attribute: %Inh. Fill in for each entry.
A number alone suffices; assume %.

Provide one value: measured %Inh of Cl.Fc1ccccc1COc1ccc(Nc2ncnc3ccc(-c4nnc(C(F)(F)F)o4)cc23)cc1Cl [GW424170]
0

Provide one value: measured %Inh of Nc1nc(-c2ccccn2)c(-c2ccnc3ccccc23)s1 [GW548057]
4

Provide one value: measured %Inh of Cn1cc(-c2ccc3c(c2)CCN3C(=O)Cc2cccc(C(F)(F)F)c2)c2c(N)ncnc21 [GSK2606414]
0

Provide one value: measured %Inh of O=C(CCO)NCCn1ccc2ncnc(Nc3ccc(Oc4cccc(C(F)(F)F)c4)c(Cl)c3)c21
0

Provide one value: measured %Inh of Cn1ccc2ncnc(Nc3ccc(Oc4cccc(Cl)c4)c(Cl)c3)c21
9

* * *

Record form. Attribute: %Inh. Fill in for each entry.
System: SGK
condition set: concentration: 1 μM, replicates: in singlicate; n = 1
A number alone suffices; assume %.

Given Cl.O=S(=O)(c1cccc(F)c1)c1ccc(Nc2ncnc3cc(Br)sc23)cc1Cl [GSK306886] , report its %Inh on SGK.
0

Given CCc1nc(-c2cccc(N(C)S(=O)(=O)c3ccccc3)c2)c(-c2ccnc(Nc3ccc(N4CCN(C(C)=O)CC4)nc3)n2)s1 [GSK1645895] , report its %Inh on SGK.
0

Given CC(C)N1CCC(n2cnc(-c3ccc(F)cc3)c2-c2ccnc(N)n2)CC1 [SB-223132] , report its %Inh on SGK.
0

Given COC(=O)c1c(-c2ccccc2)c2cc(Cl)ccc2c(=O)n1Cc1ccc(S(C)(=O)=O)cc1 , report its %Inh on SGK.
0

Given c1ccc(-c2ccc3c(-c4ccnc(Nc5ccc6c(c5)OCCO6)n4)cnn3n2)cc1 [GW818941] , report its %Inh on SGK.
12

Given Fc1cccc(COc2ccc(Nc3ncnc4nn5ccccc5c34)cc2Cl)c1 [GW689066] , report its %Inh on SGK.
0

Given COc1ccc(Nc2nccc(N3CCC(NC(=O)c4cccc(NC(C)=O)c4)C3)n2)cc1 (stereo not shown) [GSK1379732] , report its %Inh on SGK.
15

Given Nc1nc(-c2ccc3c(N)n[nH]c3c2)cc(N2CCC[C@@H](C(=O)Nc3ccccc3)C2)n1.O=C(O)C(F)(F)F.O=C(O)C(F)(F)F [GSK2288359] , report its %Inh on SGK.
0

Given CS(=O)(=O)CCNCc1ccc(-c2ccc3ncnc(Nc4ccc(OCc5ccccc5)c(Cl)c4)c3c2)o1.Cl [GW574783] , report its %Inh on SGK.
11

Given NC(=O)c1sc(-n2cnc3ccccc32)cc1OCc1ccccc1F [GSK1024306] , report its %Inh on SGK.
4

Given Cn1cc(-c2ccc3c(c2)CCN3C(=O)Cc2cccc(C(F)(F)F)c2)c2c(N)ncnc21 [GSK2606414] , report its %Inh on SGK.
19

Given COc1ccc(NC(=O)c2ccc(-c3cc(-c4nnc(C)o4)ccc3C)cc2)cc1 [GW595885] , report its %Inh on SGK.
1

Given Cc1ccc(C)c(NC(=O)NCCNc2ccnc(Nc3ccc(F)cc3)n2)c1 [GSK1379878] , report its %Inh on SGK.
0

Given C[C@H]1CC[C@@H](C(=O)Nc2ccccc2)CN1c1cc(-c2ccc3c(N)n[nH]c3c2)nc(N)n1 [GSK2283293] , report its %Inh on SGK.
0

Given FC(F)(F)c1cc(Nc2nccc(-c3c(-c4ccc(Cl)cc4)nn4ncccc34)n2)ccc1Cl [GW829351] , report its %Inh on SGK.
0

Given Cl.Cl.c1ccc(-c2cc3ccncc3cc2OC2CCNCC2)cc1 [GSK1122999] , report its %Inh on SGK.
0

Given Fc1ccc(Nc2nccc(-c3c(-c4ccc(Cl)cc4)nn4ncccc34)n2)cc1F [GW829058] , report its %Inh on SGK.
18

Given Nc1nc(-c2ccccn2)c(-c2ccnc3ccccc23)s1 [GW548057] , report its %Inh on SGK.
0

Given Clc1cc(Nc2ncnc3cc[nH]c23)ccc1OCc1ccccn1 , report its %Inh on SGK.
31

Given Nc1n[nH]c2nnc(-c3ccccc3)cc12 [SB-517389] , report its %Inh on SGK.
0

Given COc1ccc(-c2oc3ncnc(N)c3c2-c2ccc(OC)cc2)cc1 [SB-589132] , report its %Inh on SGK.
9

Given Cc1cc(N2CCC(NS(=O)(=O)c3ccc(F)cc3)CC2)nc(Nc2cccc(C#N)c2)n1.O=C(O)C(F)(F)F [GSK1653537] , report its %Inh on SGK.
0
